target.under.test: dopaminergic receptors D2 (Homo sapiens, UniProt P14416)
Sequence (P14416 whole entry): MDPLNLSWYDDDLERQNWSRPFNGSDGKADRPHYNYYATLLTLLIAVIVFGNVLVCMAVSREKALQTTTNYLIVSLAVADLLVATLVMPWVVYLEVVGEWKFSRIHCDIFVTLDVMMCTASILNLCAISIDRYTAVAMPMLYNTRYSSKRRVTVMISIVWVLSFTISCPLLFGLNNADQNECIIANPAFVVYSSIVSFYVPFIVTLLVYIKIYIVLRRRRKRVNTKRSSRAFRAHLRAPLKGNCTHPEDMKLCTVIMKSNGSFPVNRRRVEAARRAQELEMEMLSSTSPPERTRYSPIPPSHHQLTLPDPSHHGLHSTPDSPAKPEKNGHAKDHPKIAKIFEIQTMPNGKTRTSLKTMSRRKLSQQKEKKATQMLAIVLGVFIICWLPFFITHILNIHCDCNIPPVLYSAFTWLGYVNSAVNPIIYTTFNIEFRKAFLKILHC
protocol.details: Radioligand binding assay, dopaminergic D2 receptors
particulars: binding assay, test compound 1×10^−6 M
readout.label: inhibition at 1 µM (%)
One number for each entry, in %.

# example entries with known answers
Cn1ccc2c(S(=O)(=O)NC3CCN(CCCc4noc5cc(F)ccc45)CC3)cccc21 :: 84
O=S(=O)(NCC1CN(CCCc2noc3cc(F)ccc23)C1)c1cccc2ccccc12 :: 93
O=S(=O)(NC1CCN(CCCc2noc3cc(F)ccc23)C1)c1ccc(Cl)c(F)c1 (stereo not shown) :: 89

With those in mind, consider the next compound.
Look up inhibition at 1 µM with dopaminergic receptors D2 (Homo sapiens, UniProt P14416) for this compound: O=S(=O)(N[C@H]1CCN(CCCc2noc3cc(F)ccc23)C1)c1cc2ccccc2s1
101

* * *

target.under.test: 5-HT6 receptor (Homo sapiens, UniProt P50406)
Construct: purchased PerkinElmer
Sequence (P50406 whole entry): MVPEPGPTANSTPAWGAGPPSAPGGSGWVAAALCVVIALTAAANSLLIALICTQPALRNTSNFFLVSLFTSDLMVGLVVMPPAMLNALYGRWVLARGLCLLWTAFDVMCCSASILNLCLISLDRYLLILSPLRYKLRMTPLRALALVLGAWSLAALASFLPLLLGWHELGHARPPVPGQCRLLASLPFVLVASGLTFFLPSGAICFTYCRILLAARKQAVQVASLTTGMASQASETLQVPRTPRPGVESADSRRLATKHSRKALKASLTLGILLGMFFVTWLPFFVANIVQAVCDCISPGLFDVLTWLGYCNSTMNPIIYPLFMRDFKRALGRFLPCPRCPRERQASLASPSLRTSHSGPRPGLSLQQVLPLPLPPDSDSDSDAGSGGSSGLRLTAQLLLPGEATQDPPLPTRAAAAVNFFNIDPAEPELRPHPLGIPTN
protocol.details: Radioligand binding assay, serotoninergic 5-HT6 receptors;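 further: test compound at 1 µM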
particulars: binding assay result in %, Table 5a
Consider the reported inhibition at 1 µM of an entry and match it to a band in bottom bin: < 40%; middle bin: ≥ 40% and < 90%; top bin: ≥ 90%

Examples with answers:
O=S(=O)(NCC1CCN(CCCc2noc3cc(F)ccc23)C1)c1ccc2cc(Cl)ccc2c1 (centres unmarked) :: middle bin
Cc1c(S(=O)(=O)NCC2CCN(CCCc3noc4cc(F)ccc34)C2)sc2ccc(Cl)cc12 (centres unmarked) :: top bin
O=S(=O)(NCC1CN(CCCc2noc3cc(F)ccc23)C1)c1ccc(Cl)cc1 :: middle bin

Which inhibition at 1 µM category applies to CC(C)(C)c1ccc(S(=O)(=O)NCC2CN(CCOc3cccc4c3OCCO4)C2)cc1 here?
bottom bin

* * *

target.under.test: 5-HT1A receptor (rat hippocampus) (Rattus norvegicus, UniProt P19327)
Construct: hippocampus; from tissue; host or cells: rat hippocampus
Sequence (P19327 whole entry): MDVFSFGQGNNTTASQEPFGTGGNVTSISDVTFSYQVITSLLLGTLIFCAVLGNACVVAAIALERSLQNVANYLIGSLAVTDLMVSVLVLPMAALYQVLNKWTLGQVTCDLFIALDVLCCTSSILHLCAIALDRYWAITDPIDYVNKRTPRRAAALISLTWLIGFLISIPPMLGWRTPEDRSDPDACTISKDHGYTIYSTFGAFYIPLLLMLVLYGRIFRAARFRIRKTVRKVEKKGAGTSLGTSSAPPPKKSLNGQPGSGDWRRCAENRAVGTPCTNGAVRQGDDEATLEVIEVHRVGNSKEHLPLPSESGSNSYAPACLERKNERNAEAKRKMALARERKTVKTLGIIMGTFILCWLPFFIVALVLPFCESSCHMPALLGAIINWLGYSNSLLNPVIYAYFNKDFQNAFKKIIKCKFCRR
protocol.details: Radioligand binding assay, serotoninergic 5-HT1A receptors;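 further: test compound at 1 µM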
particulars: binding assay result in %, Table 5a
Decide by inhibition at 1 µM: equal to or exceeding 70% means Yes, less means No.

Cc1cccc(S(=O)(=O)NC2CCN(CCCc3c[nH]c4ccc(F)cc34)C2)c1 (centres unmarked) [Compound 78] :: Yes
O=S(=O)(NCC1CCN(CCOc2nsc3ccccc23)C1)c1ccc2ccccc2c1 (centres unmarked) [Compound 44] :: No
O=S(=O)(NCC1CCN(CCOc2cccc3c2OCCO3)C1)c1ccc(Cl)s1 (centres unmarked) [Compound 316] :: Yes
O=S(=O)(NCC1CN(CCOc2cccc3ccccc23)C1)c1csc2ccccc12 [Compound 171] :: Yes
O=S(=O)(NC1CCN(CCCc2noc3cc(F)ccc23)C1)c1ccc2ccccc2c1 (centres unmarked) [Compound 21] :: No
O=S(=O)(NCC1CCN(CCCc2noc3cc(F)ccc23)C1)c1ccc(F)c(Cl)c1 (centres unmarked) [Compound 263] :: No

Consider the record given below.
Does the compound O=S(=O)(NCC1CN(CCCc2noc3cc(F)ccc23)C1)c1cccc2ccccc12 [Compound 133] have recorded inhibition at 1 µM that is 70% or more?
No

* * *

Kindly supply the reported Ki values for the records listed here.
target.under.test: 5-HT2A receptor (Homo sapiens, UniProt P28223)
Sequence (P28223 whole entry): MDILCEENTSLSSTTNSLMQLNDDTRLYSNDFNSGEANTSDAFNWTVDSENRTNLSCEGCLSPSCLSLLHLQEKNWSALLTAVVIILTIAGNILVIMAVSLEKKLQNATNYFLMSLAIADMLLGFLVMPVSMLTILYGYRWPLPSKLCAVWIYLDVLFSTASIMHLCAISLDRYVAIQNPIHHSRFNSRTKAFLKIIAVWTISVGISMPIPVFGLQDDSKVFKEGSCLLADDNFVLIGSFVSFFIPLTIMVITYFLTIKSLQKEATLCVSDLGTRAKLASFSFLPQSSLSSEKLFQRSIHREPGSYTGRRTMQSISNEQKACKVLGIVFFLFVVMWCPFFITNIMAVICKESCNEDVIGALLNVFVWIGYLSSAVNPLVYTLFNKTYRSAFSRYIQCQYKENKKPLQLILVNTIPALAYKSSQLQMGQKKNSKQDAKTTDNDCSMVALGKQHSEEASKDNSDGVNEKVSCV
One number for each entry, in nM.

The examples below pair each entry with its known result.
Cc1c(S(=O)(=O)N[C@H]2CCN(CCCc3noc4cc(F)ccc34)C2)sc2ccc(Cl)cc12 [Compound 205] :: 1.6
Cc1c(S(=O)(=O)N[C@H]2CCN(CCCc3noc4cc(F)ccc34)C2)sc2ccc(F)cc12 [Compound 203] :: 0.7
Cc1c(S(=O)(=O)NCC2CN(CCCc3noc4cc(F)ccc34)C2)sc2ccc(Cl)cc12 [Compound 131] :: 5.5
O=S(=O)(N[C@H]1CCN(CCCc2noc3cc(F)ccc23)C1)c1cc2ccccc2o1 [Compound 215] :: 1.2
O=S(=O)(N[C@@H]1CCN(CCCc2noc3cc(F)ccc23)C1)c1cc2ccccc2s1 [Compound 196] :: 0.4
O=S(=O)(N[C@H]1CCN(CCCc2noc3cc(F)ccc23)C1)c1csc2ccccc12 [Compound 225] :: 0.9
O=S(=O)(N[C@@H]1CCN(CCCc2noc3cc(F)ccc23)C1)c1ccc2cc(Cl)ccc2c1 [Compound 200] :: 2.3
O=S(=O)(N[C@@H]1CCN(CCCc2noc3cc(F)ccc23)C1)c1csc2ccccc12 [Compound 224] :: 1.6
Cc1ccc2sc(S(=O)(=O)N[C@@H]3CCN(CCCc4noc5cc(F)ccc45)C3)cc2c1 [Compound 228] :: 1
O=S(=O)(N[C@H]1CCN(CCCc2noc3cc(F)ccc23)C1)c1cc2ccccc2s1 [Compound 197] :: 0.7

Could you tell me Ki for each of these compounds? They are listed below.
1. O=S(=O)(N[C@H]1CCN(CCCc2noc3cc(F)ccc23)C1)c1ccc2cc(Cl)ccc2c1 [Compound 201]
2. Cc1c(S(=O)(=O)NCC2CN(CCCc3noc4cc(F)ccc34)C2)sc2ccc(F)cc12 [Compound 130]
3. O=S(=O)(N[C@@H]1CCN(CCCc2noc3cc(F)ccc23)C1)c1cc2ccc(Cl)cc2s1 [Compound 198]

1. 7
2. 4.2
3. 0.7

Give Ki for each of the items listed below.
1. Cc1c(S(=O)(=O)N[C@@H]2CCN(CCCc3noc4cc(F)ccc34)C2)sc2ccc(F)cc12 [Compound 202]
2. Cc1c(S(=O)(=O)N[C@@H]2CCN(CCCc3noc4cc(F)ccc34)C2)sc2ccc(Cl)cc12 [Compound 204]
3. O=S(=O)(N[C@H]1CCN(CCCc2noc3cc(F)ccc23)C1)c1ccc2ccccc2c1 [Compound 207]

1. 1.4
2. 0.8
3. 0.5

* * *

target.under.test: 5-HT6 serotoninergic receptors (Homo sapiens)
Sequence (P50406 whole entry): as the sequence (P50406 whole entry) above
protocol.details: Cellular functional assay, 5-HT6 serotoninergic receptors
Type: cell-based
particulars: agonist mode; percent of control specific agonist response
readout.label: 5-HT6 ag [%] (%)
Answers are plain numbers, in %.

Consider the worked cases shown below.
Cc1c(S(=O)(=O)N[C@@H]2CCN(CCCc3noc4cc(F)ccc34)C2)sc2ccc(Cl)cc12 [Compound 204] :: −1
Cc1c(S(=O)(=O)N[C@@H]2CCN(CCCc3noc4cc(F)ccc34)C2)sc2ccc(F)cc12 [Compound 202] :: 1
Cc1cccc(S(=O)(=O)NC2CCN(CCCc3c[nH]c4ccc(F)cc34)C2)c1 (stereo not shown) [Compound 78] :: 54

Please state 5-HT6 ag [%] for every compound in the list that follows.
1. O=S(=O)(N[C@H]1CCN(CCCc2noc3cc(F)ccc23)C1)c1cc2ccccc2s1 [Compound 197]
2. O=S(=O)(N[C@@H]1CCN(CCCc2noc3cc(F)ccc23)C1)c1ccc2ccccc2c1 [Compound 206]
3. O=S(=O)(NC1CCN(CCCc2noc3cc(F)ccc23)C1)c1csc2ccccc12 (stereo not shown) [Compound 26]

1. −1
2. −2
3. 0

Dear colleague, could you please provide 5-HT6 ag [%] for the compounds listed below?
1. Cc1c(S(=O)(=O)N[C@H]2CCN(CCCc3noc4cc(F)ccc34)C2)sc2ccc(Cl)cc12 [Compound 205]
2. O=S(=O)(NC1CCN(CCCc2noc3cc(F)ccc23)C1)c1cccc2ccccc12 (stereo not shown) [Compound 20]
3. O=S(=O)(N[C@H]1CCN(CCCc2noc3cc(F)ccc23)C1)c1cc2ccccc2o1 [Compound 215]
4. O=S(=O)(NC1CCN(CCCc2noc3cc(F)ccc23)C1)c1cc2ccc(F)cc2s1 (stereo not shown) [Compound 234]

1
1
−2
−1

* * *

target.under.test: dopaminergic receptors D3 (Homo sapiens, UniProt P35462)
Sequence (P35462 whole entry): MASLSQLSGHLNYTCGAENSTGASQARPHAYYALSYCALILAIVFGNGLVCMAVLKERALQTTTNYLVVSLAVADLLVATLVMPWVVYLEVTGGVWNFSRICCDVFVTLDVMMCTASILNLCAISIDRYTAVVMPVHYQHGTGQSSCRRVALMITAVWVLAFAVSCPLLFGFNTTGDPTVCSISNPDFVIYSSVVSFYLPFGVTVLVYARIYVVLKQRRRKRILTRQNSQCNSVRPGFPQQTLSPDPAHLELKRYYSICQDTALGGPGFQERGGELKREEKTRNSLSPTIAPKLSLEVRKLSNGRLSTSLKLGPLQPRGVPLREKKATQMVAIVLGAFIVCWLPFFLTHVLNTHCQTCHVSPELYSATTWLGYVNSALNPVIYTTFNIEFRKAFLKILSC
protocol.details: Radioligand binding assay, dopaminergic D3 receptors
particulars: test compound 1×10^−6 M
From the text: The specific ligand binding to the receptors is defined as the difference between the total binding and the non-specific binding determined in the presence of the excess of unlabelled ligand. The results are expressed as a percent of control specific binding ((measured specific binding/control specific binding)×100) and as a percent inhibition of control specific binding (100−((measured specific binding/control specific binding)×100)) obtained in the presence of the test compounds. […]
Kindly supply the reported inhibition at 1 µM values for the records listed here.

Below are worked cases with known answers.
O=S(=O)(NCC1CCN(CCCc2noc3cc(F)ccc23)C1)c1ccc(-c2ccccc2)cc1 (stereo not shown) [Compound 241] :: 87%
Cn1ccc2cc(S(=O)(=O)NCC3CN(CCCc4noc5cc(F)ccc45)C3)ccc21 [Compound 150] :: 60%
O=S(=O)(NCC1CN(CCCc2noc3cc(F)ccc23)C1)c1cccc(O)c1 [Compound 149] :: 39%

We now examine a further compound.
dopaminergic receptors D3 (Homo sapiens, UniProt P35462) / inhibition at 1 µM / O=S(=O)(NCC1CN(CCOc2cccc3c2OCCO3)C1)c1ccc(C(F)(F)F)cc1 [Compound 180] : value?
46%

* * *

Assignment: determine reported α1 [%] for the given compounds.
Tested on: α1 adrenergic receptors (rat cerebral cortex)
protocol.details: Radioligand binding assay, adrenergic α1 receptors
particulars: test compound 1×10^−6 M
Numbers only, in %.

Consider the worked cases shown below.
O=S(=O)(NCC1CN(CCOc2cccc3ccccc23)C1)c1ccc(F)c(Cl)c1 [Compound 172] :: 40
O=S(=O)(NCC1CN(CCOc2cccc3c2OCCO3)C1)c1ccc(Br)cc1 [Compound 185] :: 34
O=S(=O)(NCC1CN(CCOc2cccc3c2OCCO3)C1)c1cccs1 [Compound 184] :: 88
O=S(=O)(NCC1CCN(CCOc2nsc3ccccc23)C1)c1ccc2ccccc2c1 (centres unmarked) [Compound 44] :: 46
O=S(=O)(NC1CCN(CCCc2c[nH]c3ccc(F)cc23)C1)c1ccc2ccccc2c1 (centres unmarked) [Compound 80] :: 50

// each listed compound needs a value for α1 [%]
1. O=S(=O)(NCC1CN(CCOc2cccc3c2OCCO3)C1)c1cc2ccccc2o1 [Compound 186]
2. O=S(=O)(NCC1CCN(CCOc2cccc3ccccc23)C1)c1ccc(F)c(Cl)c1 (centres unmarked) [Compound 277]
3. O=S(=O)(N[C@H]1CCN(CCCc2noc3cc(F)ccc23)C1)c1csc2ccccc12 [Compound 225]
4. O=S(=O)(NC1CCN(CCOc2cccc3ccccc23)C1)c1ccc2ccccc2c1 (centres unmarked) [Compound 116]
5. O=S(=O)(NCC1CCN(CCCc2noc3cc(F)ccc23)C1)c1ccc2ccccc2c1 (centres unmarked) [Compound 240]

1: 80; 2: 21; 3: 93; 4: 23; 5: 86

For each entry beneath this line, provide reported α1 [%].
1. Cc1c(S(=O)(=O)NC2CCN(CCCc3noc4cc(F)ccc34)C2)sc2ccc(Cl)cc12 (centres unmarked) [Compound 29]
2. O=S(=O)(NCC1CN(CCOc2cccc3c2OCCO3)C1)c1cccc2ccccc12 [Compound 176]
3. O=S(=O)(NC1CCN(CCCc2noc3cc(F)ccc23)C1)c1ccc(F)cc1 (centres unmarked) [Compound 8]
4. O=S(=O)(NC1CCN(CCOc2cccc3[nH]ccc23)CC1)c1ccc2ccccc2c1 [Compound 61]

18
51
95
79

Give measured α1 [%] for every item shown.
1. Cc1cccc(S(=O)(=O)NCC2CCN(CCCc3noc4cc(F)ccc34)CC2)c1 [Compound 36]
2. O=S(=O)(NC1CCN(CCOc2cccc3[nH]ccc23)C1)c1cccc2ccccc12 (centres unmarked) [Compound 53]
3. CC1(C)Cc2cccc(OCCN3CCC(NS(=O)(=O)c4ccc5ccccc5c4)C3)c2O1 (centres unmarked) [Compound 108]

1. 103
2. 88
3. 40
